Target: Vhr1 (UniProt P40522)
Sequence: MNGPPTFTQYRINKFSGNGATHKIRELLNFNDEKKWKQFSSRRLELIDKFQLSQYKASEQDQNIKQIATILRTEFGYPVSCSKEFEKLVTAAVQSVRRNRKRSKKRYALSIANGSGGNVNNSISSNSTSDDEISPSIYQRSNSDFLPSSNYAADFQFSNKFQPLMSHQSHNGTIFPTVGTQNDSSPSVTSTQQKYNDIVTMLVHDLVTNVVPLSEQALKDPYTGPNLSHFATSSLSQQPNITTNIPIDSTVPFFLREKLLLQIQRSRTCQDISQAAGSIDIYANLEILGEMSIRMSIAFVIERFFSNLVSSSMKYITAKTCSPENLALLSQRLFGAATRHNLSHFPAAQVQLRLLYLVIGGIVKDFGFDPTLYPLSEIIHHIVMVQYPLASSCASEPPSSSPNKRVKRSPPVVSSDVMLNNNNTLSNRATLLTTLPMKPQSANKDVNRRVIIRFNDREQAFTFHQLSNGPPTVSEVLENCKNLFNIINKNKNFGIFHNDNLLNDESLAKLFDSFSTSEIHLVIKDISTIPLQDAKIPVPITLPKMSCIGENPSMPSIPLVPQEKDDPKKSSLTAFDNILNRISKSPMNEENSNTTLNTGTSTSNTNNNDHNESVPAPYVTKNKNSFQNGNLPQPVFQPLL
Test: PBM E-score (8-mer binding enrichment) (E-score (-0.5 to 0.5)); higher = stronger / more preferred TF binding
Details: protein concentration: 200 nM; construct: GST-full length
In all, about 33,000 sequences were measured (“E-score (-0.5 to 0.5)”: median about -0.012, highest 2% from about 0.27 on). Shown is part of a subset that was picked to be rich in the highest values.
Reported PBM E-score values are given for each entry in this list.
property.label: PBM E-score

{"columns": ["sequence", "assay.result"],
 "data": [
  ["CAAGTCAG", 0.208],
  ["CTCTCAAC", 0.00283],
  ["GCACAGAA", -0.0823],
  ["GTAGTCAC", 0.441],
  ["GAAAGTCC", -0.317],
  ["CATACTGA", 0.123],
  ["AGATATAT", 0.131],
  ["GGTACTCA", 0.281],
  ["GGTACTTA", -0.103],
  ["GTACCCGA", -0.161],
  ["CTAGTCAA", 0.124],
  ["GTAGTCAA", 0.262],
  ["ATCAGACC", 0.0881],
  ["GATACTGA", 0.159]
]}

* * *

Reported PBM E-score values are given for each entry in this list.
Target: Vhr1 (UniProt P40522)
Sequence: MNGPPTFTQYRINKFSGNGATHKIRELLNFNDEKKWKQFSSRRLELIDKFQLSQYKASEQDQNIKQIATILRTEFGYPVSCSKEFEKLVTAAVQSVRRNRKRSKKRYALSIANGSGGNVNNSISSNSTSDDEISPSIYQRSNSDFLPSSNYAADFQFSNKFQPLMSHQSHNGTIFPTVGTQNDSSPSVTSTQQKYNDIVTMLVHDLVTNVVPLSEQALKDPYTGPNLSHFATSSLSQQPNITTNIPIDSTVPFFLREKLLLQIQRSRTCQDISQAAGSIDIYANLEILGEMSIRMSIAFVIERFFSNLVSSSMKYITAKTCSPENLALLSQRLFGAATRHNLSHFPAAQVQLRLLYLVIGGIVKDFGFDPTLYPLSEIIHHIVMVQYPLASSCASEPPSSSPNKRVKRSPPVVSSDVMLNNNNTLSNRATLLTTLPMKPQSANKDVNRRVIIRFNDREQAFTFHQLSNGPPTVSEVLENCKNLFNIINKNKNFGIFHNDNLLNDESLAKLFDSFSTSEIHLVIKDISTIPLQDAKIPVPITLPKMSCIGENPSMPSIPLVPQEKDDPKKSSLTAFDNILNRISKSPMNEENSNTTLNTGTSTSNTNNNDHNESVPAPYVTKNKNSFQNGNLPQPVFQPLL
Experiment: PBM E-score (8-mer binding enrichment) (E-score (-0.5 to 0.5)); higher = stronger / more preferred TF binding
Settings: protein concentration: 200 nM; construct: GST-full length
Whole data set: some 33,000 sequences, median “E-score (-0.5 to 0.5)” near -0.012, cut for the highest 2% near 0.27. Only a selection was taken, and the highest values are over-represented in it overall.
property.label: PBM E-score

{"columns": ["sequence", "property.label", "assay.result"],
 "data": [
  ["ATCACAGC", "PBM E-score", 0.182],
  ["ACACTGCC", "PBM E-score", 0.281],
  ["TATATACA", "PBM E-score", 0.162],
  ["AGTCGCGG", "PBM E-score", 0.351],
  ["ACTACACA", "PBM E-score", 0.327],
  ["CGGAACCG", "PBM E-score", 0.0495],
  ["GGGAGGAC", "PBM E-score", -0.0865],
  ["AGCCATGA", "PBM E-score", 0.228],
  ["CTTCATTC", "PBM E-score", -0.0777],
  ["CATGTTGA", "PBM E-score", 0.278],
  ["ATATTTAG", "PBM E-score", -0.00388],
  ["CGCCCGAC", "PBM E-score", 0.342],
  ["CCTCGCCG", "PBM E-score", -0.118],
  ["TAGAATCA", "PBM E-score", 0.185],
  ["CCATTCGA", "PBM E-score", -0.172],
  ["GTTGCCTA", "PBM E-score", -0.162],
  ["ACAGTTGG", "PBM E-score", -0.02],
  ["GGACTCCA", "PBM E-score", 0.13],
  ["CGAGTTCC", "PBM E-score", 0.0292],
  ["CATTCGCG", "PBM E-score", 0.279],
  ["CTTGGCCA", "PBM E-score", -0.0546],
  ["AATATATG", "PBM E-score", 0.19],
  ["CACAATGC", "PBM E-score", 0.132],
  ["CACAATGA", "PBM E-score", 0.286],
  ["CGTCGCGA", "PBM E-score", 0.181],
  ["AGAATAGG", "PBM E-score", 0.026],
  ["AGCCCGAC", "PBM E-score", 0.0296],
  ["AGTCAAGC", "PBM E-score", 0.00212],
  ["GTGGTAAC", "PBM E-score", -0.0602],
  ["GGAAGAAC", "PBM E-score", 0.0668],
  ["CGACAGAG", "PBM E-score", 0.0418],
  ["GATTCGCA", "PBM E-score", 0.276],
  ["ATCACATA", "PBM E-score", 0.19],
  ["AGCCATGC", "PBM E-score", 0.128],
  ["ATCACACG", "PBM E-score", 0.102],
  ["AAGAATCA", "PBM E-score", 0.222],
  ["TATATATA", "PBM E-score", 0.318],
  ["GAGTTGGC", "PBM E-score", 0.161],
  ["AGTCATGG", "PBM E-score", 0.458],
  ["CCTCGCGC", "PBM E-score", -0.0292],
  ["CGGAATCA", "PBM E-score", 0.412],
  ["CAACTCCG", "PBM E-score", -0.0132],
  ["GTAACCAA", "PBM E-score", 0.103],
  ["GATACATC", "PBM E-score", 0.224],
  ["GGATCCGA", "PBM E-score", -0.0296],
  ["GGGAACCA", "PBM E-score", 0.176],
  ["CCACTCCA", "PBM E-score", 0.0742],
  ["AGGAGTGA", "PBM E-score", 0.00535],
  ["CACAATGG", "PBM E-score", 0.176],
  ["AGACTCCA", "PBM E-score", 0.133],
  ["GATATATC", "PBM E-score", 0.0354],
  ["TACCGTCA", "PBM E-score", -0.0775],
  ["CATGTTGC", "PBM E-score", 0.0935],
  ["CCTACACG", "PBM E-score", -0.0152],
  ["ACCCTAAT", "PBM E-score", -0.0655],
  ["ACTCGCCT", "PBM E-score", 0.0445],
  ["ATGCATCC", "PBM E-score", -0.152],
  ["ACTCGCGG", "PBM E-score", 0.209],
  ["AGTCAAGG", "PBM E-score", 0.196],
  ["CCGCTAGC", "PBM E-score", -0.266],
  ["GATACATA", "PBM E-score", 0.332],
  ["GAGACTAA", "PBM E-score", -0.00777],
  ["AGACTCCC", "PBM E-score", -0.00382],
  ["AGTCGCTG", "PBM E-score", 0.216],
  ["CGACTCCC", "PBM E-score", 0.321],
  ["GGGAATAA", "PBM E-score", -0.0372],
  ["CTAAAACA", "PBM E-score", -0.0504],
  ["TGACTCCA", "PBM E-score", 0.48],
  ["AGGAATCG", "PBM E-score", 0.0478],
  ["CATATATA", "PBM E-score", 0.256],
  ["ACTCGCGC", "PBM E-score", 0.273]
]}
